The following binders are shown together with reported glycan array binding signal (z-score) values.
# target-under-test: Man(a1-2)Man(a1-3)Man
# assay-explanation: glycan array binding signal (z-score within array); higher = stronger binding
# measurement-setup: glycan notation: IUPAC condensed, linker removed
About 410 targets per protein were measured; listed, in parts, are those with the strongest signals and a random draw of the rest.

{"columns": ["binder", "glycan array binding signal (z-score)"],
 "data": [
  ["Wzz (Escherichia coli) (protein) MRTWKFPSVRVMMRVENNNVSGQNHDPEQIDLIDLLVQLWRGKMTIIISVIVAIVLAIGYLAVAKEKWTSTAIITQPDVGQIAGYNNAMNVIYGQAAPKVSDLQETLIGRFSSAFSALAETLDNQEEPEKLTIEPSVKNQQLPLTVSYVGQTAEGAQMKLAQYIQQVDDKVNQELEKDLKDNIALGRKNLQDSLRTQEVVAQEQKDLRIRQIQEALQYANQAQVTKPQIQQTGEDITQDTLFLLGSEALESMIKHEATRPLVFSSNYYQTRQNLLDIDNLDVDKLDIHAYLYVMKPTLPIRRDSPKKAITLILAVLLGGMVGAGIVLGRNALRNYNAK", -0.72],
  ["CV-IIL (Chromobacterium violaceum) (protein) AQQGVFTLPARINFGVTVLVNSAATQHVEIFVDNEPRAAFSGVGTGDNNLGTKVINSGSGNVRVQITANGRQSDLVSSQLVLANKLNLAVVGSEDGTDMDYNDSIVILNWPLG", 1.55],
  ["SJCP3842 (Schistosoma japonicum) (protein) MFKMRIINLVNISTVLLLINLLQTKSRLVGKENGFMLTVSIYGAQLSDKMTSVPVSWTIDYEDPEKSAFKKLVTDSCDTFSEYVKSQIPKGSVDGQCTSHIFQRPGSGSGVSISLTLSFIYVDVTQPDTVALKTELEKHFANFVTIHSHKITQAQFRINQKAIVIPTGDKDAIDGSKWKIIAIIALVALAIVVIGGFIYICVK", -1.03],
  ["FimA-N2 (Actinomyces oris) (protein) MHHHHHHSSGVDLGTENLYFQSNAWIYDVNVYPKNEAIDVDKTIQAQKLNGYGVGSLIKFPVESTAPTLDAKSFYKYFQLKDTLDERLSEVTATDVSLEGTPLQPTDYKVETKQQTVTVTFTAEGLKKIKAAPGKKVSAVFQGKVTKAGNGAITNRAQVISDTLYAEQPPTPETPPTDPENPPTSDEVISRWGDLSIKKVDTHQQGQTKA", 0.075],
  ["PA-IL (Pseudomonas aeruginosa), Q05097 (protein) MAWKGEVLANNEAGQVTSIIYNPGDVITIVAAGWASYGPTQKWGPQGDREHPDQGLICHDAFCGALVMKIGNSGTIPVNTGLFRWVAPNNVQGAITLIYNDVPGTYGNNSGSFSVNIGKDQS", -0.226],
  ["F17eG (Escherichia coli), Q9RH92 (protein) MTNFYKVFLAVFILVCCNISHAAVSFIGSTENDVGPSQSSYSRTHAMDNLPFVYNTGYNIGYQNANVWRISGGFCVGLDGKVDLPVVGSLDGQSIYGLTEEVGLLIWMGDTNYSRGTAMSGNSWENVFSGWCVGNYVSTQGLSVHVRPVILKRNSSAQYSVQKTSIGSIRMRPYNGSSAGSVQTTVNFSLNPFTLNDTVTSCRLLTPSAVNVSLAAISAGQLPSSGDEVVAGTTSLKLQCDAGVTVWATLTDATTPSNRSDILTLTGASTATGVGLRIYKNTDSTPLKFGPDSPVKGNENQWQLSTGTETSPSVRLYVKYVNTGEGINPGTVNGISTFTFSYQ", -0.302],
  ["PA-IL (Pseudomonas aeruginosa) (protein) AWKGEVLANNEAGQVTSIIYNPGDVITIVAAGWASYGPTQKWGPQGDREHPDQGLICHDAFCGALVMKIGNSGTIPVNTGLFRWVAPNNVQGAITLIYNDVPGTYGNNSGSFSVNIGKDQS", -0.365]
]}
